- Subject of test: FXR LBD, GST (Homo sapiens, UniProt Q96RI1)
- Construct: FXR LBD, GST; purchased Invitrogen PV4834
- Sequence (Q96RI1 262-486 limits assumed): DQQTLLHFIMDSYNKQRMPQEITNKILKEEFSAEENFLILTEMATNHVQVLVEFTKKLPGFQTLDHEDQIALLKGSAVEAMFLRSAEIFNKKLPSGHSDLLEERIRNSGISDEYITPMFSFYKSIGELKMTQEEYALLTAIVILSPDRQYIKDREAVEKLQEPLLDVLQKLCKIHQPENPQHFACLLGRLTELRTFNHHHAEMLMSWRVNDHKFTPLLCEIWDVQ
- Measurement description: FXR Binding Assay (TR-FRET, Fluorescein-SRC2-2 coactivator peptide)
- Condition: % Activity relative to positive control; read-out: Pct Effect (Emax %)
Readout kind: Emax (%)
Enter your answer as a number in %; do not include the unit.

# annotated cases, reported Emax shown
- Molecule: "Cn1cc(C(=O)O)c2ccc(N3CCN(C(=O)Cc4c(-c5c(Cl)cccc5Cl)noc4C4CC4)CC3)cc21 [Example I2]"
  Unit abbrev: "%"
  Emax: 75.1
- Molecule: "CC(CN1CCN(c2ccc3c(C(=O)O)cn(C)c3c2)CC1)c1c(-c2c(Cl)cccc2Cl)noc1C1CC1 (stereo not shown) [Example I24]"
  Unit abbrev: "%"
  Emax: 89.8
- Molecule: "Cn1nc2cc(N3CCN(CCc4c(-c5c(Cl)cccc5Cl)noc4C4CC4)CC3)ccc2c1C(=O)O [Example I18]"
  Unit abbrev: "%"
  Emax: 142
- Molecule: "COc1cccc(Cl)c1-c1noc(C2CC2)c1CCN1CCN(c2ccc3c(C(=O)O)cn(C)c3c2)CC1 [Example I21]"
  Unit abbrev: "%"
  Emax: 85.1
- Molecule: "CC1CN(c2ccc3c(C(=O)O)cn(C)c3c2)CCN1CCc1c(-c2c(Cl)cccc2Cl)noc1C1CC1 (stereo not shown) [Example I8]"
  Unit abbrev: "%"
  Emax: 202
- Molecule: "O=C(O)c1ccc2nc(N3CCN(CCc4c(-c5c(Cl)cccc5Cl)noc4C4CC4)CC3)sc2c1 [Example I4]"
  Unit abbrev: "%"
  Emax: 89.8

Now look at this one.
GET /value?item= C[C@@H]1CN(CCc2c(-c3c(Cl)cccc3Cl)noc2C2CC2)C[C@H](C)N1c1ccc2c(C(=O)O)cn(C)c2c1 [Example I43] &field=Emax returns 110

====

- Subject of test: FXR LBD, GST (Homo sapiens, UniProt Q96RI1)
- Construct: FXR LBD, GST; purchased Invitrogen PV4834
- Measurement description: FXR Binding Assay (TR-FRET, Fluorescein-SRC2-2 coactivator peptide)
- Condition: % Activity relative to positive control; read-out: Pct Effect (Emax %)
- Protocol: The interaction between the present compounds and FXR are evaluated by Time-Resolved Fluorescence Resonance Energy Transfer (TR-FRET) competition assay. […] In contrast to standard FRET, TR-FRET unites time-resolved fluorescence (TRF) and the FRET principle, TRF use a long-lifetime lanthanide chelate as the donor species, while lanthanide chelates are unique in that their excited-state lifetime can be on the order of a millisecond or longer. […]
Readout kind: Emax (%)
Enter your answer as a number in %; do not include the unit.

GET /value?item= O=C(O)c1cc(F)c2nc(N3C4CCC3CN(CCc3c(-c5c(Cl)cccc5Cl)noc3C3CC3)C4)sc2c1 [Example I31] &field=Emax returns 45.1

GET /value?item= O=C(O)c1ccc2cc(N3CCN(CCc4c(-c5c(Cl)cccc5Cl)noc4C4CC4)CC3)ccc2n1 [Example I6] &field=Emax returns 142

GET /value?item= Cn1cc(C(=O)O)c2ccc(N3CCN(CCc4c(-c5c(Cl)cccc5Cl)noc4C4CC4)CC3(C)C)cc21 [Example I25] &field=Emax returns 151

GET /value?item= CC1CN(CCc2c(-c3c(Cl)cccc3Cl)noc2C2CC2)CCN1c1ccc2c(C(=O)O)cn(C)c2c1 (stereo not shown) [Example I12] &field=Emax returns 147

====

- Subject of test: FXR LBD, GST (Homo sapiens, UniProt Q96RI1)
- Construct: FXR LBD, GST
- Measurement description: FXR Binding Assay (TR-FRET, Fluorescein-SRC2-2 coactivator peptide)
- Condition: TR-FRET FXR LBD coactivator recruitment
Readout kind: pEC50
On this scale, pEC50 is minus log10 of a concentration expressed in M (mol/L).

- Compound: "Cn1cc(C(=O)O)c2ccc(N3CC4CC(C3)C4OCc3c(-c4c(Cl)cccc4Cl)noc3C3CC3)cc21 (stereo not shown)"
  Readout kind: "pEC50"
  Quantitative readout: 6.21
- Compound: "O=C(O)c1cc(F)c2nc(N3CC4CC(C3)C4OCc3c(-c4ccccc4OC(F)(F)F)noc3C3CC3)sc2c1 (stereo not shown)"
  Readout kind: "pEC50"
  Quantitative readout: 6.14
- Compound: "CC(C)c1onc(-c2c(Cl)cccc2Cl)c1CCN1CCN(c2ccc3c(C(=O)O)cn(C)c3c2)CC1"
  Readout kind: "pEC50"
  Quantitative readout: 7.04
- Compound: "O=C(O)c1ccc(N2CCN(CCc3c(-c4c(Cl)cccc4Cl)noc3C3CC3)CC2)cc1"
  Readout kind: "pEC50"
  Quantitative readout: 6.18

GET /value?item= Cn1cc(C(=O)O)c2ccc(N3CCCN(CCc4c(-c5c(Cl)cccc5Cl)noc4C4CC4)CC3)cc21 &field=pEC50 returns 7.60

====

- Subject of test: FXR LBD, GST (Homo sapiens)
- Construct: FXR LBD, GST
- Measurement description: FXR Binding Assay (TR-FRET, Fluorescein-SRC2-2 coactivator peptide)
- Condition: TR-FRET FXR LBD coactivator recruitment
// reported pEC50 per item
On this scale, pEC50 is minus log10 of a concentration expressed in M (mol/L).

# annotated cases, reported pEC50 shown
- Molecule: "CC(CN1CCN(c2ccc3c(C(=O)O)cn(C)c3c2)CC1)c1c(-c2c(Cl)cccc2Cl)noc1C1CC1 (stereo not shown)"
  Subject of test: "FXR LBD, GST (Homo sapiens)"
  Quantitative readout: 6.37
- Molecule: "Cn1nc2cc(N3CCN(CCc4c(-c5c(Cl)cccc5Cl)noc4C4CC4)CC3)ccc2c1C(=O)O"
  Subject of test: "FXR LBD, GST (Homo sapiens)"
  Quantitative readout: 7.34
- Molecule: "Cn1cc(C(=O)O)c2cc(F)c(N3CCN(CCc4c(-c5c(Cl)cccc5Cl)noc4C4CC4)CC3)cc21 [Example I42]"
  Subject of test: "FXR LBD, GST (Homo sapiens)"
  Quantitative readout: 7.00

Now look at this one.
GET /value?item= O=C(O)c1cc(F)c2nc(N3C4CCC3CN(CCc3c(-c5ccccc5OC(F)(F)F)noc3C3CC3)C4)sc2c1 &field=pEC50 returns 6.89

====

- Subject of test: hFXR-LBD (FXR-GAL4 chimeric receptor) (Homo sapiens)
- Sequence (Q96RI1 262-486 limits assumed): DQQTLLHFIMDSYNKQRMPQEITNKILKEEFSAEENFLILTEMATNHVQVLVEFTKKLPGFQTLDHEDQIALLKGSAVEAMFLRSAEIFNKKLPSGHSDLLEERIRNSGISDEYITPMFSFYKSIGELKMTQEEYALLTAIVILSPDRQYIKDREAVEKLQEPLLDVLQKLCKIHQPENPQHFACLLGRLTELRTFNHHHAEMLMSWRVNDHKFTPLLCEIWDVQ
- Measurement description: FXR Transactivation Assay (GAL4 luciferase reporter in HEK293T cells)
pEC50: −log10 of the molar value.
Use 6 as the dividing line for pEC50, with the line itself on the True side and lower values as False.

Below are worked cases with known answers.
- Molecule: "Cn1cc(C(=O)O)c2ccc(N3CCN(CCc4c(-c5c(Cl)cccc5Cl)noc4C4CC4)CC3(C)C)cc21"
  Group label: "True"
- Molecule: "Cn1cc(C(=O)O)c2ccc(N3CCN(CCc4c(-c5c(F)cccc5Cl)noc4C4CC4)CC3)cc21"
  Group label: "True"
- Molecule: "Cn1cc(C(=O)O)c2ccc(N3CCN(C(=O)Cc4c(-c5c(Cl)cccc5Cl)noc4C4CC4)CC3)cc21"
  Group label: "False"
- Molecule: "C[C@H]1CN(c2ccc3c(C(=O)O)cn(C)c3c2)CCN1CCc1c(-c2c(Cl)cccc2Cl)noc1C1CC1"
  Group label: "True"
- Molecule: "CC(C)c1onc(-c2c(Cl)cccc2Cl)c1CCN1CCN(c2ccc3c(C(=O)O)cn(C)c3c2)CC1"
  Group label: "True"

Inquiry: Dear colleague, could you confirm whether Cn1nc2cc(N3CCN(CCc4c(-c5c(Cl)cccc5Cl)noc4C4CC4)CC3)ccc2c1C(=O)O has pEC50 at or above 6?
Reply text: True

Inquiry: Dear colleague, could you confirm whether CC(CN1CCN(c2ccc3c(C(=O)O)cn(C)c3c2)CC1)c1c(-c2c(Cl)cccc2Cl)noc1C1CC1 (stereo not drawn) has pEC50 at or above 6?
Reply text: False

Origin of the recorded values: patent US20220227745A1
